# Tested on: HUVEC
# protocolNotes: Inhibitory concentration required against growth of HUVEC […] cell line
# Format: functional, cell-based
# runParameters: Homo sapiens
Friendly reminder: IC50 below 2 µM is Criterion met, at or above is Criterion not met.

Worked examples, 3 compounds total:
compound: CC(=O)c1cc2c(cc1O)CC[C@@H]1[C@@H]2CC[C@]2(C)[C@@H](O)CC[C@@H]12
className: Criterion not met
--
compound: C=C1CC[C@H]2[C@@H]3CCc4cc(O)c(OCC)cc4[C@H]3CC[C@]12C
className: Criterion met
--
compound: COCc1cc2c(cc1O)CC[C@@H]1[C@@H]2CC[C@]2(C)[C@@H](O)CC[C@@H]12
className: Criterion not met

Inquiry: Lab log: compare recorded IC50 with 2 µM; is it strictly lower for "CC#Cc1cc2c(cc1O)CC[C@@H]1[C@@H]2CC[C@]2(C)[C@@H](O)CC[C@@H]12" ?
Reply text: Criterion met

Inquiry: # repeat for COc1cc2c(cc1O)CCC1[C@@H]2CC[C@@]2(C)[C@H]1CCC2(F)F (single isomer, unassigned)
Reply text: Criterion not met

Inquiry: # repeat for "C=CCc1cc2c(cc1O)CC[C@@H]1[C@@H]2CC[C@]2(C)[C@@H](O)CC[C@@H]12"
Reply text: Criterion not met

Inquiry: # repeat for "C[C@]12CC[C@@H]3c4cc(C(F)(F)C(F)(F)F)c(O)cc4CC[C@H]3[C@@H]1CC[C@@H]2O"
Reply text: Criterion not met

Inquiry: # repeat for "CC#Cc1cc2c(cc1O)CC[C@@H]1[C@@H]2CC[C@@]2(C)[C@H]1CC[C@]2(C)O"
Reply text: Criterion met

---

# Tested on: UACC-62
# protocolNotes: Growth inhibitory concentration required against human melanoma UACC-62 cancer cell line
# Assay type: functional
measurementType: GI50 (µM)
A number alone suffices; assume µM.

compound: COc1cc2c(cc1O)CC[C@@H]1[C@@H]2CC[C@@]2(C)[C@H]1CC[C@@]2(O)C(F)(F)F
measuredOn: UACC-62
GI50 [µM]: 18.2
--
compound: CN(C)CCC/N=C/c1cc2c(cc1O)CC[C@@H]1[C@@H]2CC[C@]2(C)[C@@H](O)CC[C@@H]12
measuredOn: UACC-62
GI50 [µM]: 13.8
--
compound: C[C@]12CC[C@@H]3c4ccc(O)cc4CCC3[C@@H]1CCC2(F)F (single isomer, unassigned)
measuredOn: UACC-62
GI50 [µM]: 14.1

Pending compound:
Inquiry: Any idea what GI50 was measured for "CC(=O)c1cc2c(cc1O)CC[C@@H]1[C@@H]2CC[C@]2(C)[C@@H](O)CC[C@@H]12" ?
Reply text: 24.5

---

Collected GI50 values appear next to each entry.
# Test system: HCT-116
# protocolNotes: Growth inhibitory concentration against human colon cancer HCT116 cell line
# Format: functional
A number alone suffices; assume µM.

Answered examples (2):
compound: C[C@]1(O)CC[C@H]2[C@@H]3CCc4cc(O)ccc4[C@H]3CC[C@@]21C
measuredOn: HCT-116
measurementType: GI50
dataValue: 0.7
//
compound: COc1cc2c(cc1O)CCC1[C@@H]2CC[C@@]2(C)[C@H]1CCC2(F)F (single isomer, unassigned)
measuredOn: HCT-116
measurementType: GI50
dataValue: 66.1

Inquiry: Identify the measured GI50 of "CCC(=O)c1cc2c(cc1O)CC[C@@H]1[C@@H]2CC[C@]2(C)[C@@H](O)CC[C@@H]12" for HCT-116.
Reply text: 9.3

---

# measuredOn: Tubulin (Bos taurus, UniProt Q6B856+Q862L2+Q862F3)
# protocolNotes: Inhibitory concentration against bovine tubulin polymerization
# Assay type: functional
Collected IC50 values appear next to each entry.

Answered examples (5):
molecule: C=CCc1cc2c(cc1O)CC[C@@H]1[C@@H]2CC[C@]2(C)[C@@H](O)CC[C@@H]12
IC50: > 40 µM

molecule: COc1cc2c(cc1O)CC[C@@H]1[C@@H]2CC[C@@]2(C)[C@H]1CC[C@]2(C)[C@H](O)c1ccccc1
IC50: > 40 µM

molecule: CN(C)CCC/N=C/c1cc2c(cc1O)CC[C@@H]1[C@@H]2CC[C@]2(C)[C@@H](O)CC[C@@H]12
IC50: > 40 µM

molecule: C[C@]12CC[C@@H]3c4cc(C(F)(F)C(F)(F)F)c(O)cc4CC[C@H]3[C@@H]1CC[C@@H]2O
IC50: > 40 µM

molecule: CC#Cc1cc2c(cc1O)CC[C@@H]1[C@@H]2CC[C@@]2(C)[C@H]1CC[C@]2(C)O
IC50: 11 µM

Inquiry: Any idea what IC50 was measured for "COc1cc2c(cc1O)CC[C@@H]1[C@@H]2CC[C@@]2(C)[C@H]1CC[C@]2(C)O" ?
Reply text: > 40 µM

Inquiry: # repeat for "COc1cc2c(cc1O)CC[C@@H]1[C@@H]2CC[C@@]2(C)[C@H]1CC[C@@]2(O)C(F)(F)F"
Reply text: > 40 µM

Inquiry: # repeat for "CCOc1cc2c(cc1O)CC[C@@H]1[C@@H]2CC[C@@]2(C)[C@H]1CC[C@]2(C)O"
Reply text: 4.8 µM

Inquiry: # repeat for C[C@]12CC[C@@H]3c4ccc(O)cc4CCC3[C@@H]1CCC2(F)F (single isomer, unassigned)
Reply text: > 40 µM

Inquiry: # repeat for "CC(=O)c1cc2c(cc1O)CC[C@@H]1[C@@H]2CC[C@]2(C)[C@@H](O)CC[C@@H]12"
Reply text: > 20 µM

---

# Test system: HUVEC
# protocolNotes: Inhibitory concentration required against growth of HUVEC […] cell line
# Format: functional, cell-based
# runParameters: Homo sapiens
measurementType: pIC50
A value of pIC50 is the negative decimal logarithm of a concentration given in moles per litre.

Inquiry: Any idea what pIC50 was measured for "CCOc1cc2c(cc1O)CC[C@@H]1[C@@H]2CC[C@]2(C)[C@@H](O)CC[C@@H]12" ?
Reply text: 6.92

Inquiry: # repeat for C[C@]12CC[C@@H]3c4ccc(O)cc4CCC3[C@@H]1CCC2(F)F (single isomer, unassigned)
Reply text: 5.18

Inquiry: # repeat for "C[C@]12CC[C@@H]3c4cc(CO)c(O)cc4CC[C@H]3[C@@H]1CC[C@@H]2O"
Reply text: 5.11

Inquiry: # repeat for "CCC(=O)c1cc2c(cc1O)CC[C@@H]1[C@@H]2CC[C@]2(C)[C@@H](O)CC[C@@H]12"
Reply text: 4.65

Inquiry: # repeat for "C[C@]1(O)CC[C@H]2[C@@H]3CCc4cc(O)ccc4[C@H]3CC[C@@]21C"
Reply text: 5.51

Inquiry: # repeat for "COc1cc2c(cc1O)CC[C@@H]1[C@@H]2CC[C@@]2(C)[C@H]1CC[C@]2(C)O"
Reply text: 5.62

Inquiry: # repeat for "COc1cc2c(cc1O)CC[C@@H]1[C@@H]2CC[C@@]2(C)[C@H]1CC[C@]2(C)[C@H](O)c1ccccc1"
Reply text: 4.68

---

# Tested on: DU-145
# protocolNotes: Growth inhibitory concentration required against human prostate DU-145 cancer cell line
# Assay type: functional
measurementType: GI50 (µM)
A number alone suffices; assume µM.

Inquiry: Identify the measured GI50 of "COc1cc2c(cc1O)CC[C@@H]1[C@@H]2CC[C@@]2(C)[C@H]1CC[C@]2(C)O" for DU-145.
Reply text: 12.3

Inquiry: # repeat for "COc1cc2c(cc1O)CC[C@@H]1[C@@H]2CC[C@@]2(C)[C@H]1CC[C@]2(C)[C@H](O)c1ccccc1"
Reply text: 5.1

---

# Test system: UACC-62
# protocolNotes: Growth inhibitory concentration required against human melanoma UACC-62 cancer cell line
# Format: functional
Friendly reminder: GI50 below 10 µM is t, at or above is f.

molecule: COc1cc2c(cc1O)CC[C@@H]1[C@@H]2CC[C@@]2(C)[C@H]1CC[C@]2(C)O
measuredOn: UACC-62
className: t

Inquiry: Lab log: compare recorded GI50 with 10 µM; is it strictly lower for COc1cc2c(cc1O)CCC1[C@@H]2CC[C@@]2(C)[C@H]1CCC2(F)F (single isomer, unassigned) ?
Reply text: f

Inquiry: # repeat for "CC(=O)Oc1cc2c(cc1C(C)(F)F)[C@H]1CC[C@]3(C)[C@@H](OC(C)=O)CC[C@H]3[C@@H]1CC2"
Reply text: f

Inquiry: # repeat for "COCc1cc2c(cc1O)CC[C@@H]1[C@@H]2CC[C@]2(C)[C@@H](O)CC[C@@H]12"
Reply text: f

Inquiry: # repeat for "COc1cc2c(cc1O)CC[C@@H]1[C@@H]2CC[C@@]2(C)[C@H]1CC[C@]2(C)[C@H](O)c1ccccc1"
Reply text: f

Inquiry: # repeat for "C[C@]12CC[C@@H]3c4cc(CO)c(O)cc4CC[C@H]3[C@@H]1CC[C@@H]2O"
Reply text: f

Inquiry: # repeat for "C[C@]12CC[C@@H]3c4cc(/C=N/C5CC5)c(O)cc4CC[C@H]3[C@@H]1CC[C@@H]2O"
Reply text: f

Inquiry: # repeat for "C=C1CC[C@H]2[C@@H]3CCc4cc(O)c(OCC)cc4[C@H]3CC[C@]12C"
Reply text: t

Inquiry: # repeat for "CCC(=O)c1cc2c(cc1O)CC[C@@H]1[C@@H]2CC[C@]2(C)[C@@H](O)CC[C@@H]12"
Reply text: f

meta.source: ChEMBL document CHEMBL1138778
